Overview of reported STK11 functional score across a group of variants:
B1: library; numbered along this chain (parent)
chain: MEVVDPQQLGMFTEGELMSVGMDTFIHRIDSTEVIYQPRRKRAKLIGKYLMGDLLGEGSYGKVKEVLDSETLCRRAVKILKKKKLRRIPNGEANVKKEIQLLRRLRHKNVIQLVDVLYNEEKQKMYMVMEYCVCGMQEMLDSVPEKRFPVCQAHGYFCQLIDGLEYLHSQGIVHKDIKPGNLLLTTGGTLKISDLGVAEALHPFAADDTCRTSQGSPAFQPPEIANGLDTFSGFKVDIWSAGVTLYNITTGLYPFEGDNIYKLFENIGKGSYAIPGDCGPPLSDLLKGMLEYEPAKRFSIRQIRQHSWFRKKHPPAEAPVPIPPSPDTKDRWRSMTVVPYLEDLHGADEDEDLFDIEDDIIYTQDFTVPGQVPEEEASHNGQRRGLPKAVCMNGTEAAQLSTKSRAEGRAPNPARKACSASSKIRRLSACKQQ

Variants of: B1
Test: STK11 functional score (HeLa growth suppression), rescaled enrichment; synonymous median = 1, nonsense median = 0 (normalised score)
Conditions: with HeLa; variant type: missense
parameter: STK11 functional score

In [3]: df
Out[3]:
    mutation_key  experimental_value
 0         E407P                 1.6
 1         E256W                1.65
 2         S378I                1.26
 3         R425V               0.938
 4         D359S                1.15
 5         Q364A                1.53
 6         L400W                1.56
 7         Q302F                1.14
 8         D358C                1.53
 9         K403I                1.04
10          K62A                 1.7
11         L113V                0.44
12         R211S                1.32
13         E349A                 1.5
14         L184W               0.145
15         F264S               0.597
16          V20P                1.43
17         L101Q               0.894
18         G276S                1.42
19         E265M                1.25
20         T250E                0.89
21         E407S                1.57
22         D194C              -0.228
23         L400G                1.48
24         I322R                1.11
25         I248G              0.0645
26         G180W                1.44
27          T32G                1.45
28         K108T                1.33
29         G171N                1.69
30          S59W               0.719
31          E92Q                1.16
32         M335K                1.03
33         G370Q                1.55
34         S419F                1.46
35         R106P                1.14
36          G56L               0.359
37         V110H               0.958
38         T212I                1.13
39         S378P                1.38
40          K78F              0.0316
41          D53R                1.58
42         R384H                1.47
43         P203S                1.68
44         Y340D               0.511
45         D365C                1.51
46         Q137D               0.482
47         P324I                1.56
48         K122N                1.51
49         D277L                0.92
50         L344E                1.28
51         F219I                1.31
52         P144S               0.825
53         E145W                1.41
54         P314I                 1.5
55          D53E               0.779
56         N119M               0.408
57         S334Y                1.55
58          E57L               0.946
59         C158A                1.37
60         A414W                1.63
61         A205C                1.25
62          R75D                1.68
63         P281I                1.46
64         R383G                1.11
65         A218D               0.324
66         P339Y                1.21
67         P319H                1.16
68         Y166K                1.56
69         P222A                0.83
70         N247E                1.33
71           Q8L                 1.5
72         L113Q                1.02
73          R40G                1.19
74          V66K                 1.4
75          L45D                1.34
76         I161Y               0.129
77         F366D                 1.6
78         L184A               0.745
79         K178M               0.202
80          H27S               0.805
81         P314C                1.53
82         A377V                1.31
83         I424Q                1.55
84          M51R                1.16
85         A273R                1.13
86         R103Y                1.15
87         A414Y                1.58
88         L341T                1.29
89         K388N                1.53
90         A406K                1.28

FYI, the data here is from the supplement of paper PMC12338614.
